molecular target: human NMT-1 (Homo sapiens (Human)); test: NMT enzyme inhibition scintillation proximity assay, human NMT-1; type: biochemical; details: Human NMT-1; value in parentheses; read-out: IC50 (μM) NMT Enzyme (HuNMT-1)
Sequence (P30419 whole entry): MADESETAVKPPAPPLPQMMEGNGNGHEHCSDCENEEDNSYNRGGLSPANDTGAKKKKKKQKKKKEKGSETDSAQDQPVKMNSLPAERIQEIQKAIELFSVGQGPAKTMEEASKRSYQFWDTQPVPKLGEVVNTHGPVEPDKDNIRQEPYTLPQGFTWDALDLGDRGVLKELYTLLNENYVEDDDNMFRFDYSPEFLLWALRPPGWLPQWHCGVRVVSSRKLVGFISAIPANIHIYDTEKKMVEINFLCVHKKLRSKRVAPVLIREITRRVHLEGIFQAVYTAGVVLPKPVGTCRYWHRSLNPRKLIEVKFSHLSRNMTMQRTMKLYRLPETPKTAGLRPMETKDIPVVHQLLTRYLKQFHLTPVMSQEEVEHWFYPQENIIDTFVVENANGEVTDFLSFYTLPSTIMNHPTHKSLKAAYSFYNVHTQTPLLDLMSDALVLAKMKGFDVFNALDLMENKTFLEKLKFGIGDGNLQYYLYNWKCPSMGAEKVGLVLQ
Assay readout: IC50 (µM)

>>> df
                                   compound                         measured_on  assay_readout  readout_relation  readout_number
0  Cc1nn(C)c(C)c1N[S+](=O)([O-])c1ccc(-c2cccc(-c3nccn3C)c2)cc1 [DDD100874]  human NMT-1 (Homo sapiens (Human))           IC50                 >               1
1  Cc1nn(C)c(C)c1N(CC(F)(F)F)[S+](=O)([O-])c1c(Cl)cc(CCCN2CCN(C)CC2)cc1Cl  human NMT-1 (Homo sapiens (Human))           IC50                 =             2.4
2  Cc1nn(C)c(C)c1N[S+](=O)([O-])c1ccc(-c2cccc(-c3c[nH]cn3)c2)cc1  human NMT-1 (Homo sapiens (Human))           IC50                 =             2.6
3  Cc1nn(C)c(C)c1N[S+](=O)([O-])c1ccc(-c2cccc(-c3nccn3C)c2)cc1 [DDD100878]  human NMT-1 (Homo sapiens (Human))           IC50                 =             2.4

* * *

Known Kp at 5 min of a selection of molecules
assay: CNS penetration: drug concentration in blood and brain after i.v. dosing; format: in vivo; details: brain / whole blood, iv; female NMRI mouse, single i.v. dose 2.0 mg/kg, t = 5 min
Assay readout: Kp at 5 min

                                   molecule  readout_number
0  Cc1nn(C)c(C)c1N(C(F)F)[S+](=O)([O-])c1c(Cl)cc(CCCC2CCN(C)CC2)cc1Cl [DDD100097]             1.5
1  CCN(CC)Cc1cccc(-c2ccc([S+](=O)([O-])Nc3c(CC(C)C)nn(C)c3C)cc2)c1 [DDD88638]            1.35
2  Cc1nn(C)c(C)c1N(CC(F)(F)F)[S+](=O)([O-])c1c(Cl)cc(CCCC2CCN(C)CC2)cc1Cl [DDD100153]            0.64
3  Cc1c(N[S+](=O)([O-])c2ccc(-c3cccc(CN(C)C)c3)cc2)c(CC(C)C)nn1C [DDD99742]            0.66

* * *

test: CNS penetration: drug concentration in blood and brain after i.v. dosing; format: in vivo; conditions: brain / whole blood, iv; female NMRI mouse, single i.v. dose 0.33 mg/kg, t = 5 min
Assay readout: Kp at 5 min

In [3]: df
Out[3]:
                                        smi  assay_readout  readout_number
0  Cc1nn(C)c(C)c1N(C)[S+](=O)([O-])c1c(Cl)cc(Br)cc1Cl    Kp at 5 min               6

* * *

assay: CNS penetration: drug concentration in blood and brain after i.v. dosing; type: in vivo; settings: whole blood, iv; female NMRI mouse, single i.v. dose 3.0 mg/kg, t = 5 min, average of three animals; read-out: Conc (ng/ml in blood)
Assay readout: concentration at 5 min (ng/mL)

                                        smi  value_unit  readout_number
0  Cc1c(NS(=O)(=O)c2ccc(CCCC3CCN(C)CC3)cc2)c(CC(C)C)nn1C       ng/mL             388

* * *

molecular target: L. major N-myristoyl transferase (Leishmania major, UniProt Q4Q5S8); format: biochemical; settings: Leishmania major NMT; value in parentheses; read-out: IC50 (μM) NMT Enzyme (LmNMT)
Sequence (Q4Q5S8 1-421): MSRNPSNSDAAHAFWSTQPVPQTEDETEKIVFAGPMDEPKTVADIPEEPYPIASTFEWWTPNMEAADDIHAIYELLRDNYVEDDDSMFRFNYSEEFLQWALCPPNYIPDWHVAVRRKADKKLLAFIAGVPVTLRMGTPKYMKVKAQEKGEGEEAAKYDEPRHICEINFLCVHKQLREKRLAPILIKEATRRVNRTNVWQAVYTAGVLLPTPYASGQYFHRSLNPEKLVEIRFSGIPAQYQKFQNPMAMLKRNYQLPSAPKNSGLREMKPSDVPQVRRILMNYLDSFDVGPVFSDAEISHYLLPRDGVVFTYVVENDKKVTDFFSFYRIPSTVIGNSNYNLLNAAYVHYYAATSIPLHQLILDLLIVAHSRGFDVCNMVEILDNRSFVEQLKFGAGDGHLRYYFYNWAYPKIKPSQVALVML
Assay readout: IC50

>>> print(df.to_string())
                                    compound  assay_readout    result
 0  Cc1c(N[S+](=O)([O-])c2ccc(-c3ccc(F)c(CN4CCCC4)c3)cc2)c(CC(C)C)nn1C [DDD100806]           IC50  0.224 µM
 1  Cc1c(N[S+](=O)([O-])c2ccc(-c3cccc(CNCCc4ccccn4)c3)cc2)c(CC(C)C)nn1C [DDD100882]           IC50    > 1 µM
 2  CCCCc1nn(C)c(C)c1N[S+](=O)([O-])c1ccc(Br)cc1 [DDD100875]           IC50    > 1 µM
 3  Cc1nn(C)c(C)c1N(C(F)F)[S+](=O)([O-])c1c(Cl)cc(CCCCCCn2ccnc2)cc1Cl [DDD100156]           IC50  0.048 µM
 4  Cc1c(N[S+](=O)([O-])c2ccc(-c3cccc(CNCc4cccnc4)c3)cc2)c(CC(C)C)nn1C [DDD100793]           IC50    1.4 µM
 5  Cc1nn(C)c(C)c1N[S+](=O)([O-])c1ccc(-c2cccc(-c3nccn3C)c2)cc1 [DDD100878]           IC50  0.906 µM
 6  Cc1c(N[S+](=O)([O-])c2ccc(-c3ccc4c(c3)CN(C)CC4)cc2)c(CC(C)C)nn1C [DDD100876]           IC50  0.059 µM
 7  CCCc1nn(C)c(C)c1N[S+](=O)([O-])c1ccc(-c2cccc(CN(C)C)c2)cc1 [DDD100867]           IC50  0.074 µM
 8  Cc1nn(C)c(C)c1N[S+](=O)([O-])c1ccc(-c2cccc(-c3c[nH]cn3)c2)cc1 [DDD100879]           IC50   1.59 µM
 9  Cc1c(N[S+](=O)([O-])c2ccc(-c3cccc(C(C)(C)N(C)C)c3)cc2)c(CC(C)C)nn1C [DDD100863]           IC50  0.091 µM
10  Cc1c(N[S+](=O)([O-])c2ccc(Br)cc2)c(CCc2ccccc2)nn1C [DDD100880]           IC50    > 1 µM
11  Cc1c(N[S+](=O)([O-])c2ccc(CCCC3CCN(C)CC3)cc2)c(Cc2ccccc2)nn1C [DDD100881]           IC50  0.778 µM
12  Cc1nn(C)c(C)c1N[S+](=O)([O-])c1ccc(-c2cccc(-c3cn(C)cn3)c2)cc1 [DDD100873]           IC50    > 1 µM
13  Cc1c(N[S+](=O)([O-])c2ccc(CCCCC3CCN(C)CC3)cc2)c(Cc2ccccc2)nn1C [DDD100883]           IC50  0.672 µM
14  Cc1c(N[S+](=O)([O-])c2ccc(-c3ccccc3CN(C)C)cc2)c(CC(C)C)nn1C [DDD100862]           IC50    > 1 µM
15  Cc1c(N[S+](=O)([O-])c2ccc(-c3ccc4c(c3)CNCC4)cc2)c(CC(C)C)nn1C [DDD100801]           IC50  0.011 µM

* * *

test: CNS penetration: drug concentration in blood and brain after i.v. dosing; format: in vivo; settings: brain, iv; female NMRI mouse, single i.v. dose 0.33 mg/kg, t = 5 min, average of three animals; read-out: Conc (ng/ml in brain)
Assay readout: concentration at 5 min (ng/mL)

                                        smi  readout_number
0  Cc1nn(C)c(C)c1N(C)[S+](=O)([O-])c1c(Cl)cc(Br)cc1Cl             314

* * *

target: human NMT-1 (Homo sapiens (Human)); experiment: NMT enzyme inhibition scintillation proximity assay, human NMT-1; assay type: biochemical; conditions: HuNMT-1
Known IC50 of a selection of compounds
Assay readout: IC50

>>> df
                                   compound   result
0  Cc1nn(C)c(C)c1N(C)[S+](=O)([O-])c1ccc(CCCC2CCN(CC3CC3)CC2)cc1   > 1 µM
1  Cc1nn(C)c(C)c1N(C)[S+](=O)([O-])c1ccc(CCCCCCn2ccnc2)cc1   2.1 µM
2  Cc1nn(C)c(C)c1N(C)[S+](=O)([O-])c1ccc(CCCCCn2ccnc2)cc1   2.9 µM
3  Cc1nn(C)c(C)c1N(C)[S+](=O)([O-])c1ccc(CCCC2CCN(Cc3ccccc3)CC2)cc1   > 1 µM
4  CCCN(CCC)Cc1cccc(-c2cc(Cl)c([S+](=O)([O-])N(C)c3c(C)nn(C)c3C)c(Cl)c2)c1   3.7 µM
5  Cc1nn(C)c(C)c1N(C)[S+](=O)([O-])c1ccc(CCCC2CCN(C(C)C)CC2)cc1   > 1 µM
6  Cc1c(N[S+](=O)([O-])c2ccc(-c3cccc(CN4CCC(N(C)C)C4)c3)cc2)c(CC(C)C)nn1C (centres unmarked)   3.8 µM
7  Cc1nn(C)c(C)c1N(C)[S+](=O)([O-])c1ccc(CCCCn2ccnc2)cc1  > 10 µM
